system.tested: acetylcholine receptor
experiment.description: SPR, AchR on chip, peptide 10 uM
assay.endpoint: Binding affinity (RU)

KQQCK [5mer-214]	79
RLQLR [5mer-544]	63

[I] RQLTK [5mer-7]
[II] KWVRK [5mer-339]
Smaller Binding affinity (RU) value, I vs II ? Give the chosen item's label as your response.
I
(I: 54 RU, II: 87 RU)

Numbers sourced from patent US20250011363A1.
